All values here come from ChEMBL document CHEMBL4138223.

Target: Exoenzyme S (Pseudomonas aeruginosa) (UniProt Q93SQ1)
Assay: Inhibition of recombinant Pseudomonas aeruginosa PAK His6-tagged ExoS ADPRT domain expressed in Escherichia coli at 100 uM using human GST-fused vH-Ras as substrate measured over 30 mins in presence of 14.3.3beta and epsilonNAD+ by fluorescence assay relative to control
READOUT NAME: inhibition (%)
Write down the numeric answer in % and omit the unit.

# get_value(readout='inhibition', item= O=C(O)CCCc1nc2cc3c(cc2c(=O)[nH]1)CCC3 )
50

# get_value(readout='inhibition', item= O=C(O)CCc1nc2ccc3c(c2c(=O)[nH]1)CCCC3 )
45

# get_value(readout='inhibition', item= O=C(O)CCCc1nc2ccc([N+](=O)[O-])cc2c(=O)[nH]1 )
30

# get_value(readout='inhibition', item= COC(=O)CCc1nc(N)c2c3c(sc2n1)CCC3 )
12

# get_value(readout='inhibition', item= O=C(O)CCc1nc2cc3c(cc2c(=O)[nH]1)CCCC3 )
27

----------
Assignment: determine reported IC50 for the given compounds.
Biological target: Exoenzyme S (Pseudomonas aeruginosa, UniProt Q93SQ1)
Experiment: Inhibition of Pseudomonas aeruginosa PAK secreted full length ExoS using human GST-fused vH-Ras as substrate preincubated for 10 mins followed by epsilonNAD+ addition measured at 30 mins in presence of 14.3.3beta and epsilonNAD+ by real-time fluorescent assay
Conditions: read-out: IC50

# get_value(readout='IC50', item= O=C(O)CCCc1nc2cccc(F)c2c(=O)[nH]1 )
7.67 µM

# get_value(readout='IC50', item= O=C(O)[C@H]1C[C@@H]1c1nc2sc3c(c2c(=O)[nH]1)CCC3 (racemic) )
2.36 µM

# get_value(readout='IC50', item= O=C(O)/C=C\c1nc2sc3c(c2c(=O)[nH]1)CCC3 )
3.51 µM

# get_value(readout='IC50', item= O=C(O)C1CC1c1nc2sc3c(c2c(=O)[nH]1)CCC3 (stereo in doubt; form 1) )
1.32 µM

# get_value(readout='IC50', item= O=C(O)C1CC1c1nc2sc3c(c2c(=O)[nH]1)CCC3 (stereo in doubt; form 2) )
8.31 µM

# get_value(readout='IC50', item= O=C(O)CCc1nc2sc3c(c2c(=O)[nH]1)CCC3 )
6.93 µM

----------
Biological target: Exoenzyme S (Pseudomonas aeruginosa)
Assay: Inhibition of recombinant Pseudomonas aeruginosa PAK His6-tagged ExoS ADPRT domain expressed in Escherichia coli using human GST-fused vH-Ras as substrate measured over 30 mins in presence of 14.3.3beta and epsilonNAD+ by fluorescence assay
Conditions: read-out: IC50
pIC50: −log10 of the molar value.
# binarize pIC50: threshold 4 inclusive, high side Fulfilled, low side Not fulfilled

Reported pIC50 reaches at least 4 for O=C(O)CCCCc1nc2sc3c(c2c(=O)[nH]1)CCC3 ?
Fulfilled

Reported pIC50 reaches at least 4 for O=C(O)CCCc1nc2cc(F)c(F)cc2c(=O)[nH]1 ?
Fulfilled

Reported pIC50 reaches at least 4 for O=C(O)[C@H](O)Cc1nc2sc3c(c2c(=O)[nH]1)CCC3 ?
Not fulfilled

Reported pIC50 reaches at least 4 for O=C(O)/C=C/c1nc2sc3c(c2c(=O)[nH]1)CCC3 ?
Fulfilled

Reported pIC50 reaches at least 4 for O=C(O)CCc1nc2ccc3c(c2c(=O)[nH]1)CCC3 ?
Fulfilled

Reported pIC50 reaches at least 4 for O=C(O)CCC(=O)Nc1sc2c(c1C(=O)O)CCCC2 ?
Not fulfilled

Reported pIC50 reaches at least 4 for O=C(O)[C@H]1C[C@@H]1c1nc2sc3c(c2c(=O)[nH]1)CCC3 (racemic) ?
Fulfilled

Reported pIC50 reaches at least 4 for O=C(O)c1ccc(-c2nc3ccccc3c(=O)[nH]2)cc1 ?
Fulfilled

Reported pIC50 reaches at least 4 for O=C(O)CCCc1nc2cccc(F)c2c(=O)[nH]1 ?
Fulfilled

----------
Assignment: determine reported IC50 for the given compounds.
Molecular target: Exoenzyme S (Pseudomonas aeruginosa, UniProt Q93SQ1)
Sequence (Q93SQ1 whole entry): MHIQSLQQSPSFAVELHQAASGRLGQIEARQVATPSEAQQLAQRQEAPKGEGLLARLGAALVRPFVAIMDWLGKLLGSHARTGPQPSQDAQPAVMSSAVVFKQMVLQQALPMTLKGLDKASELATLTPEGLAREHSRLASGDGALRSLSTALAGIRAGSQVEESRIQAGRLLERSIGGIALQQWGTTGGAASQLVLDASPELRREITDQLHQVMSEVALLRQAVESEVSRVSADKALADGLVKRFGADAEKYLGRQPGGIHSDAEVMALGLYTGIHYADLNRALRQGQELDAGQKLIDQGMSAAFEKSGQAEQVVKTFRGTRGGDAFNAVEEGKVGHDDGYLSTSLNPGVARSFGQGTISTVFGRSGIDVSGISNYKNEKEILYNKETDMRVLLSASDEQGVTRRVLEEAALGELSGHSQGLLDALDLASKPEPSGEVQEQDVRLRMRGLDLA
Experiment: Inhibition of recombinant Pseudomonas aeruginosa PAK His6-tagged ExoS ADPRT domain expressed in Escherichia coli using human GST-fused vH-Ras as substrate measured over 30 mins in presence of 14.3.3beta and epsilonNAD+ by fluorescence assay
Settings: read-out: IC50
Write down the numeric answer in µM and omit the unit.

Please tell me: IC50 of O=C(O)CCc1ncc(C2=CCCC2)c(=O)[nH]1 , system Exoenzyme S (Pseudomonas aeruginosa, UniProt Q93SQ1)?
200

Please tell me: IC50 of O=C(O)CCc1nc2cc3c(cc2c(=O)[nH]1)CCC3 , system Exoenzyme S (Pseudomonas aeruginosa, UniProt Q93SQ1)?
98

Please tell me: IC50 of O=c1[nH]c(CCCO)nc2sc3c(c12)CCC3 , system Exoenzyme S (Pseudomonas aeruginosa, UniProt Q93SQ1)?
52

Please tell me: IC50 of O=C(O)[C@@H](O)Cc1nc2sc3c(c2c(=O)[nH]1)CCC3 , system Exoenzyme S (Pseudomonas aeruginosa, UniProt Q93SQ1)?
55

Please tell me: IC50 of O=C(O)[C@H]1CCC[C@H]1c1nc2sc3c(c2c(=O)[nH]1)CCC3 , system Exoenzyme S (Pseudomonas aeruginosa, UniProt Q93SQ1)?
65

Please tell me: IC50 of CS(=O)(=O)NC(=O)CCc1nc2sc3c(c2c(=O)[nH]1)CCCC3 , system Exoenzyme S (Pseudomonas aeruginosa, UniProt Q93SQ1)?
100

Please tell me: IC50 of COC(=O)CCc1nc2sc3c(c2c(=O)[nH]1)CCC3 , system Exoenzyme S (Pseudomonas aeruginosa, UniProt Q93SQ1)?
116

Please tell me: IC50 of O=C1NC(C2CC2C(=O)O)Nc2sc3c(c21)CCC3 (racemic) , system Exoenzyme S (Pseudomonas aeruginosa, UniProt Q93SQ1)?
138

Please tell me: IC50 of O=C(O)c1ccc(-c2nc3ccccc3c(=O)[nH]2)o1 , system Exoenzyme S (Pseudomonas aeruginosa, UniProt Q93SQ1)?
32

Please tell me: IC50 of O=C(O)CCc1nc2sc3c(c2c(=O)[nH]1)CCCC3 , system Exoenzyme S (Pseudomonas aeruginosa, UniProt Q93SQ1)?
55

----------
Assignment: determine reported IC50 for the given compounds.
Target: Exoenzyme S (Pseudomonas aeruginosa)
Experiment: Inhibition of recombinant Pseudomonas aeruginosa PAK His6-tagged ExoS ADPRT domain expressed in Escherichia coli using human GST-fused vH-Ras as substrate measured over 30 mins in presence of 14.3.3beta and epsilonNAD+ by fluorescence assay
Conditions: read-out: IC50
Write down the numeric answer in µM and omit the unit.

# get_value(readout='IC50', item= O=C(O)C1CC1c1nc2sc3c(c2c(=O)[nH]1)CCC3 (stereo in doubt; form 2) )
39

# get_value(readout='IC50', item= O=C(O)COCc1nc2sc3c(c2c(=O)[nH]1)CCC3 )
72

# get_value(readout='IC50', item= O=c1[nH]c([C@@H]2C[C@H]2c2nn[nH]n2)nc2sc3c(c12)CCC3 (relative stereo) )
233

# get_value(readout='IC50', item= O=C(O)[C@H]1C[C@H]1c1nc2sc3c(c2c(=O)[nH]1)CCC3 (racemic) )
190

# get_value(readout='IC50', item= O=C(O)CCc1nc2scc(-c3ccccc3)c2c(=O)[nH]1 )
56

# get_value(readout='IC50', item= O=C(O)/C=C\c1nc2sc3c(c2c(=O)[nH]1)CCC3 )
15

# get_value(readout='IC50', item= O=C(O)C1CC1c1nc2sc3c(c2c(=O)[nH]1)CCC3 (stereo in doubt; form 1) )
6.9

----------
Target: Exoenzyme S (Pseudomonas aeruginosa) (UniProt Q93SQ1)
Test: Inhibition of recombinant Pseudomonas aeruginosa PAK His6-tagged ExoS ADPRT domain expressed in Escherichia coli at 100 uM using human GST-fused vH-Ras as substrate measured over 30 mins in presence of 14.3.3beta and epsilonNAD+ by fluorescence assay relative to control
READOUT NAME: inhibition (%)
Write down the numeric answer in % and omit the unit.

# get_value(readout='inhibition', item= O=C(O)CCCc1nc2ccc3c(c2c(=O)[nH]1)CCCC3 )
30

# get_value(readout='inhibition', item= O=C(O)CCCc1nc2ccc3c(c2c(=O)[nH]1)CCC3 )
60
